Each entry below carries its recorded MIC50 A. baumannii.
# Tested on: Acinetobacter. baumannii (ATCC BAA-747)
Where a SMILES comes first, the peptide text is derived from it. Side-chain parts run from the residue outwards. [ ]: non-standard residue; d: D form. The star is where a group is joined. Lys(α,ε-(ArgTrp)2) = N=C(N)NCCC[C@H](N)C(=O)N[C@@H](Cc1c[nH]c2ccccc12)C(=O)NCCCC[C@H](NC(=O)[C@H](Cc1c[nH]c2ccccc12)NC(=O)[C@@H](N)CCCNC(=N)N)C(=O)*; NHBn = c1ccc(CN*)cc1; βAla = NCCC(=O)O
Answer in mg/L, number only, no unit symbol.

NCCCC[C@H](N)C(=O)N[C@@H](Cc1ccc(O)cc1)C(=O)NCCCC[C@H](NC(=O)[C@H](Cc1ccc(O)cc1)NC(=O)[C@@H](N)CCCCN)C(=O)NCCCC[C@H](NC(=O)[C@H](CCCCNC(=O)[C@H](Cc1ccc(O)cc1)NC(=O)[C@@H](N)CCCCN)NC(=O)[C@H](Cc1ccc(O)cc1)NC(=O)[C@@H](N)CCCCN)C(=O)NCCC(N)=O; 360
N=C(N)NCCC[C@H](N)C(=O)N[C@@H](Cc1c[nH]c2ccccc12)C(=O)NCCCC[C@H](NC(=O)[C@H](Cc1c[nH]c2ccccc12)NC(=O)[C@@H](N)CCCNC(=N)N)C(=O)NCCCC[C@H](NC(=O)[C@H](CCCCNC(=O)[C@H](Cc1c[nH]c2ccccc12)NC(=O)[C@@H](N)CCCNC(=N)N)NC(=O)[C@H](Cc1c[nH]c2ccccc12)NC(=O)[C@@H](N)CCCNC(=N)N)C(=O)NCCC(=O)NCc1ccccc1 [(RW)4D-Benzyl amine] (H-RWK([Trp-Arg])K(Lys(α,ε-(ArgTrp)2))[βAla]-NHBn); 121
N=C(N)NCCC[C@H](N)C(=O)N[C@@H](Cc1ccccc1)C(=O)NCCCC[C@H](NC(=O)[C@H](Cc1ccccc1)NC(=O)[C@@H](N)CCCNC(=N)N)C(=O)NCCCC[C@H](NC(=O)[C@H](CCCCNC(=O)[C@H](Cc1ccccc1)NC(=O)[C@@H](N)CCCNC(=N)N)NC(=O)[C@H](Cc1ccccc1)NC(=O)[C@@H](N)CCCNC(=N)N)C(=O)NCCC(N)=O [Den(RF)4D]; 160

Look up MIC50 A. baumannii for this compound: N=C(N)NCCC[C@H](N)C(=O)N[C@@H](Cc1ccc(O)cc1)C(=O)NCCCC[C@H](NC(=O)[C@H](Cc1ccc(O)cc1)NC(=O)[C@@H](N)CCCNC(=N)N)C(=O)NCCCC[C@H](NC(=O)[C@H](CCCCNC(=O)[C@H](Cc1ccc(O)cc1)NC(=O)[C@@H](N)CCCNC(=N)N)NC(=O)[C@H](Cc1ccc(O)cc1)NC(=O)[C@@H](N)CCCNC(=N)N)C(=O)NCCC(N)=O [Den(RY)4D]
193

Then what about the compound N=C(N)NCCC[C@H](N)C(=O)N[C@@H](Cc1ccc2ccccc2c1)C(=O)NCCCC[C@H](NC(=O)[C@H](Cc1ccc2ccccc2c1)NC(=O)[C@@H](N)CCCNC(=N)N)C(=O)NCCCC[C@H](NC(=O)[C@H](CCCCNC(=O)[C@H](Cc1ccc2ccccc2c1)NC(=O)[C@@H](N)CCCNC(=N)N)NC(=O)[C@H](Cc1ccc2ccccc2c1)NC(=O)[C@@H](N)CCCNC(=N)N)C(=O)NCCC(N)=O [Den(R-2Nal)4D] ?
51.3
